Values from patent US12195482B1

Each entry below carries its recorded IC50.
# testedSystem: p-AXL (Homo sapiens)
# Sequence (P30530 26-894): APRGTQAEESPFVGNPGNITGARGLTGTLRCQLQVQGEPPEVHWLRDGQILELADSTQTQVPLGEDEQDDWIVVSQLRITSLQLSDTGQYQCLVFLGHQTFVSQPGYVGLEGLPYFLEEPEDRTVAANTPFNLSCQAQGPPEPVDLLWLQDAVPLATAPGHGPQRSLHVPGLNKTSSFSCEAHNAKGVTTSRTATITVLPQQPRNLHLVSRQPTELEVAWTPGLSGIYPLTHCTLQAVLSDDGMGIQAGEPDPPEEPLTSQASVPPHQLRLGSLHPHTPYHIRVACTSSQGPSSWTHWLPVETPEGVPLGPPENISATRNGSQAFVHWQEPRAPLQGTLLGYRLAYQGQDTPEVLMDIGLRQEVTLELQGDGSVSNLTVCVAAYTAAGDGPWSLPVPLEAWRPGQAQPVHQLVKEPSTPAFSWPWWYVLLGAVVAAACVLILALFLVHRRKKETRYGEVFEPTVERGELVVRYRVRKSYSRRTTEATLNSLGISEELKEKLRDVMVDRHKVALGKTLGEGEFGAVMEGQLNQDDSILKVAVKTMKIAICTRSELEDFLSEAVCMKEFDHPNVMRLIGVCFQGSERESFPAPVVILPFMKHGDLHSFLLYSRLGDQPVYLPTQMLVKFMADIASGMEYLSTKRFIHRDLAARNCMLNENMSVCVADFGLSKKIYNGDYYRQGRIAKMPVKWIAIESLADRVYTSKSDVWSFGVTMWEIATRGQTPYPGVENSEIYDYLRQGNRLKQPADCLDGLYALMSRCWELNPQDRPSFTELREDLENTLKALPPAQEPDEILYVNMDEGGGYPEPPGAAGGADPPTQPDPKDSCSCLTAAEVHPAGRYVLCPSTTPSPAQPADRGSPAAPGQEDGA
# assayDetails: Axl phosphorylation inhibition ELISA in HEK293T cells transfected with NanoLuc-tagged AXL
# conditionSet: 1 h compound incubation, media (OptiMEM)

The cases that follow already have their IC50 on record.
Cc1cccnc1-c1ccc(-c2n[nH]c3ncc(-c4ccc5c(c4)CC[C@@H](N4C6COCC4C6)CC5)cc23)nn1 :: < 0.1 µM
Cc1cc(C)c(-c2ccc(-c3n[nH]c4ncc(-c5ccc6c(c5)CC[C@@](C)(N5CCC[C@H]5C)CC6)cc34)cc2)nn1 :: < 0.1 µM
CO[C@H]1C[C@@H](N[C@H]2CCc3ccc(-c4cnc5[nH]nc(-c6ccc(-c7ncccc7C)cc6)c5c4)cc3CC2)C1 :: 0.1 to 1 µM

Exam item: Reported IC50 for "Cc1nccnc1-c1ccc(-c2c[nH]c3ncc(-c4ccc5c(c4)CC[C@@H](N4C6COCC4C6)CC5)cc23)cc1" : what is it?
Marked response: < 0.1 µM

Exam item: Then this molecule: "Cc1ccc(C#N)c(-c2ccc(-c3n[nH]c4ncc(-c5ccc6c(c5)CC[C@@](C)(N5CCC[C@H]5C)CC6)cc34)cc2)n1"
Marked response: < 0.1 µM

Exam item: Then this molecule: "Cc1cncnc1-c1ccc(-c2n[nH]c3ncc(-c4ccc5c(c4)CC[C@@H](N4C6COCC4C6)CC5)cc23)cc1"
Marked response: < 0.1 µM

Exam item: Then this molecule: "Cc1cc(C)c(-c2ccc(-c3n[nH]c4ncc(-c5ccc6c(c5)CC[C@@H](N5C7COCC5C7)CC6)cc34)cc2)nn1"
Marked response: < 0.1 µM

Exam item: Then this molecule: "c1ccc(-c2ccc(-c3c[nH]c4ncc(-c5ccc6c(c5)CC[C@@H](N5C[C@@H]7C[C@H]5CO7)CC6)cc34)cc2)nc1"
Marked response: 0.1 to 1 µM
